# procedure summary: Phase 1 PK trial of glepaglutide in healthy subjects, half-life of metabolite ZP2469
# Type: in vivo, human
# cond: human, plasma, subcutaneous, 1 mg, final results; Group A, 1 mg once daily, after 7 doses; per subject; read-out: Half-life of ZP2469 in the interval from 72 to 168 hours post dose (converted)
observation type: half-life
Write the quantity with the unit trailing the number.

Q: Look up half-life: H-HGEGTFSSELATILDALAARDFIAWLIATKITDK-OH [ZP2469]
A: 94 h
